Taken from patent US20140178390A1.

target: T1, Human CXCR7 (human, UniProt P25106 1-362); assay: phage ELISA on immobilized hCXCR7 VLPs, OD 450 nm
T1 construct: see assay field; also called hCXCR7
T1 sequence (P25106 whole entry): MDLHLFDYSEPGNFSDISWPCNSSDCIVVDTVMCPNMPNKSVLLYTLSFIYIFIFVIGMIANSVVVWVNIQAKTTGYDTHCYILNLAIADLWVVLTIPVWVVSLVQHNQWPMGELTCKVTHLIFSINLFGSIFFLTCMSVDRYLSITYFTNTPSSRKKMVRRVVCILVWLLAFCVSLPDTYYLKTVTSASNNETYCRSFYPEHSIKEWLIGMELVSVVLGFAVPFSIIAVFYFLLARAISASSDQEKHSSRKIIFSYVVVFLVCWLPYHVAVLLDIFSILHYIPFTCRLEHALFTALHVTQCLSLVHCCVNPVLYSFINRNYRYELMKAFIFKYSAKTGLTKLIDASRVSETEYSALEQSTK
Property name: CXCR7-LP 2U/well [OD]
// return the numeric value with its unit appended

Nanobody 07B11 with Tag-1 (VHH, periplasmic extract in the screening FACS) VHH: EVQLVESGGNLVQAGGSLGLSCAASVSISSIHIMGWYRQAPGKQRDLVATITSGGSTAYADSVKGRFTVSKDNAKNTVYLQMDSLKPEDTSVYYCAAEVRNGVFGKWNHYWGQGTQVTVSS: 0.041 OD
Nanobody 01C10 with Tag-1 (VHH) VHH: EVQLVESGGGLVQTGASLRLSCAASGRTFSNYAMGWFRQAPGKERERVAAITPRAFTTYYADSVKGRFTISRDNAKNTAYLQMVSLKPEDTAVYYCAAQLVGSGSNLGRQESYAYWGQGTQVTVSS: 0.145 OD
Nanobody 08A05 with Tag-1 (VHH, periplasmic extract in the screening FACS) VHH: EVQLVESGGGLVQAGDSLRLSCAASGLTFSNYDMGWFRQAPGKEREFVGASWWSGGAPYYSDSVKGRFTISRDNAKNTVYLQANSLRPEDTAVYYCAAKRLRSFASGGSYDYWGQGTQVTVSS: 0.019 OD

Inquiry: Can you look up the measured CXCR7-LP 2U/well [OD] of Nanobody 07C03 with Tag-1 (VHH, periplasmic extract in the screening FACS) VHH: EVQLVESGGGLVQAGESLTLSCAASGRTLSAYIMGWFRQAPGKEREFVAGIWSGGYTHLADSAKGRFSISRDNAKNTVYLQMNGLKPEDTAVYYCAAGLRGRQYSNWGQGTQVTVSS for me?
Reply text: 0.053 OD

Inquiry: Quick one: CXCR7-LP 2U/well [OD] of Nanobody 08A10 with Tag-1 (VHH, periplasmic extract in the screening FACS) VHH: EVQLVESGGGLVQAGGSLRLSCAASGSIFSIAAMGWYRQATGKQRELVATITDGGTTTYADSVKGRVTISRDRSANTVYLAMNNLKPDDTAVYYCYAYLRYTSRVPGDNYWGQGTQVTVSS ?
Reply text: 0.104 OD
